System: Plasmodium berghei
Test: Screen against P. berghei liver stage (PbLuc), transformed with Luciferase, at 10uM
Type: functional, HepG2
Conditions: tested at 10 uM
Out of some 69,000 compounds screened, about 8,600 (12%) showed an effect of 50% or more. What follows is part of a selection rich in strong results, with near analogues and random picks from the rest.
observationType: INHIBITION (%)
One number for each entry, in %.

Worked examples follow.
CCOCC1CN(C(=O)c2cscn2)Cc2cnn(CC3CC3)c21 (stereo not given) = 56.7
Cc1noc(C)c1C(=O)N1Cc2ncn(C)c2C(COCC2CC2)C1 (stereo not given) = 58.4
O=C(NCC1CCCO1)c1cc(-c2cccnc2)c2cnccc2n1 (stereo not given) = 31.3
CCCC(C(=O)NCCc1nc(C)cs1)N(C)C (stereo not given) = 26

Batch of 7 compounds: report INHIBITION for each.
1. Cc1sc(CN)nc1-c1ccc(Cl)cc1
2. Cc1ncsc1C(=O)N1CCCC1c1c(C)nn(C)c1C (stereo not given)
3. Cc1cccc(-n2cc3[nH]c(=O)n(Cc4cccc(F)c4)n3c2=O)c1
4. O=C(c1cnc2n1CCCC2)N1CCCC1
5. Cn1cnc2c1C(COCC1CC1)CN(C(=O)c1cscn1)C2 (stereo not given)
6. CCn1ccc(NC(=O)c2cc(C)on2)n1
7. CCn1cc(-c2cc(C(F)(F)F)nn2CCC#N)cn1

A:
[5.11, 16.6, 25.2, 66.1, 58.8, -9.21, 11.8]
